- test_summary: soluble on expression in E. coli; label from the status in PepcDB or PDB records
experimental_endpoint: soluble on expression in E. coli

GGRLLGALCVFKDITDAVELAEEVTNLKQVRTMLEAIIQSSDEAISVVDENGIGLLINKAYTKMTGLSEKEVIGKPANTDISEGESMHLKVLETRRPVRGVRMKVGPNEKEVIVNVAPVIVDG: not soluble
GHHHHHHHHHHSSGHISGDAMEDKQERANYEKLQQKFQMLMSKHQAHVRPQFESLEKINKDIVGWIKLSGTSLNYPVLQGKTNHDYLNLDFEREHRRKGSIFMDFRNELKNLNHNTILYGHHVGDNTMFDVLEDYLKQSFYEKHKIIEFDNKYGKYQLQVFSAYKTTTKDNYIRTDFENDQDYQQFLDETKRKSVINSDVNVTVKDRIMTLSTCEDAYSETTKRIVVVAKIIKVS: soluble
MPAIKSSADLRNNYNEISTFCHNYPEPVFITKNGKGDLAVMSIEAYEGLTSRFELYSQIKEGMDDIATGNTRPFSEAMADIRSRRSRLEHHHHHH: not soluble
GSHMKETKKAGPIELPEELEAQRQRHNDPRRPPWPLLHQRVVLLREGKGAPEDIALMWEQTKHYYPADWLIPLELTQVLKYSSGKYLQTYVADPDEMRKEVLMQLLNVKYGRVSDPNGGRVNKDVEEIISMAVDDLENMDLNPAADAVLIPTHT: soluble

---

- test_summary: soluble on expression in E. coli; label from the status in PepcDB or PDB records
experimental_endpoint: soluble on expression in E. coli

Examples with their reported soluble on expression in E. coli follow.
MMKRALTGIQASGKQHLGNYLGVMQSLIELQEQCQLFVFVADLHSITVDFQPQALKQNNFDLVRTLLAVGLDPQKACLFLQSDLLEHSMMGYLMMVQSNLGELQRMTQFKAKKAEQTRNPNGTLNIPTGLLTYPALMAGDILLYQPDIVPVGNDQKQHLELTRDLAQRIQKKFKLKLRLPQFVQNKDTNRIMDLFDPTKKMSKSSKNQNGVIYLDDPKEVVVKKIRQATTDSFNKIRFAPKTQPGVTNMLTILKALLKEPVNQSLTNQLGNDLEAYFSTKSYLDLKNALTEATVNLLVNIQRKREQISREQVFNCLQAGKNQAQATARTTLALFYDGFGLGSQNIK: soluble
MGSDKIHHHHHHMKNLQVVEKEFSSLPIIDISALVSGKGNLYSAASQIRQACRESGFFYIIGHGVDENLQQRLEELSRQFFAQDLETKLKIRMALAGIAWRGYFPVGGELTSGKPDLKEGIYFGTELPDEHPLVQAGTPMHGANLFPANMPQFGETVLEYIEAMTKLGHTLMTGIAMSLGLEESYFADRYTSDPLVLFRIFNYPPNLSPSDGNPIWGVGEHTDYGVLTILKQDDSGGLQVKSKSGWVAAPPVPGSFVCNIGDMLDKMTGGFYRSTPHRVQNQSQNHRLSFPFFFDPNFDVEVKPIELDNYSSE: not soluble
MGSDKIHHHHHHEISDGVVRIGLLTDMSGAFSQFSGHGSVVAAQMAIDDCLAAECKGMKIELLSADHQNKTDIALAKAREWADVNKVDAYADMVNSAVALAMQSLAVQKKKAALFAGGPLRISNEDCQPEYAVQWMWDTYSQTAAAIKGLAKPKQGWYFITVDYAYGNAAVAEARKQLEAIGAHTVGESKHPLNSNDMSSQIIAAQQSKADVVAFANSGADSANAIKTASEFKLGAKKLQAAFFPTIYEIKGIGLAQAKGLRFPESFYWDIDDGTRRFSKRFMDIYKKGPPSLTHAGVYSSVYHYLKAVAATKSDDAQTVIRKMHELPIRDDVVRNPKLRPDGRMVHDYYYFRVKSPQESKGPWDLYALEKTLPGDEVFLPVAESQCRVFKGQAK: not soluble
MGSDKIHHHHHHMTVVDDEKPAQAASGRFAAGEDPAKRDQILDGAKRAFMKHGFDAASMNDVTREAGVSKGTIYVYFQSKEDLFAALINNQKQKFAASMRDILAEETDLHMALRRYALAFTNYILTSEMIPAMRMLLAVQDRMPHLCQSFMRSGPENVRTVLEDYLEVQVKAGRLDIADTELAARQYIELATGAYFKKRLFGEIEVPPPQAEIDYIIDNALHIFLLAYDRKAENGPEAQRAN: not soluble
MKAPVRVAVTGAAGQIGYSLLFRIAAGEMLGKDQPVILQLLEIPQAMKALEGVVMELEDCAFPLLAGLEATDDPKVAFKDADYALLVGAAPRKAGMERRDLLQVNGKIFTEQGRALAEVAKKDVKVLVVGNPANTNALIAYKNAPGLNPRNFTAMTRLDHNRAKAQLAKKTGTGVDRIRRMTVWGNHSSTMFPDLFHAEVDGRPALELVDMEWYEKVFIPTVAQRGAAIIQARGASSAASAANAAIEHIRDWALGTPEGDWVSMAVPSQGEYGIPEGIVYSFPVTAKDGAYRVVEGLEINEFARKRMEITAQELLDEMEQVKALGLI: soluble
MGSDKIHHHHHHMKIQPLPPLNSLHAFESAARHLSFTLAAKELNVTQGAISRQVRLLEDYLGKALFTRTTRSMSLTPTGAQYYETVRECMLHLARATGDIRQWQGNQQVTVATSTAMASLWLLPKVSEFQSAHENIDLRIIAHDHVKDYARLDSDLALYYCNPPPKDMAVTPLFSEEIFLVCSPAYLARHPQLSSIEGLSSCTWLWLEDSQRDWVGWPEWFKRLGYEPMTPKHRVNINSYGMLIQSAISGQGVALAWGNLVDDALSTGALVKPNDVVLQTDAKFCLLESSTERGPRESVRLFRDWLMALPSVQK: not soluble

Prompt line: Recorded soluble on expression in E. coli of MKIEELIAIRRDLHRIPELGFQEFKTQQYLLNVLEQYPQDRIEIEKWRTGLFVKVNGTAPEKMLAYRADIDALSIEEQTGLPFASEHHGNMHACGHDLHMTIALGIIDHFVHHPVKHDLLFLFQPAEEGPGGAEPMLESDVLKKWQPDFITALHIAPELPVGTIATKSGLLFANTSELVIDLEGKGGHAAYPHLAEDMVVAASTLVTQLQTIISRNTDPLDSAVITVGTITGGSAQNIIAETAHLEGTIRTLSEESMKQVKERIEDVVKGIEIGFRCKGKVTYPSVYHQVYNTSGLTEEFMSFVAEHQLATVIEAKEAMTGEDFGYMLKKYPGFMFWLGADSEHGLHHAKLNPDENAIETAVHVMTGYFSVYAN , please.
Response line: not soluble

---

- test_summary: soluble on expression in E. coli; label from the status in PepcDB or PDB records
experimental_endpoint: soluble on expression in E. coli

Example cases with answers are listed next.
MSLATTHLDVCAVVPAAGFGRRMQTECPKQYLSIGNQTILEHSVHALLAHPRVKRVVIAISPGDSRFAQLPLANHPQITVVDGGDERADSVLAGLKAAGDAQWVLVHDAARPCLHQDDLARLLALSETSRTGGILAAPVRDTMKRAEPGKNAIAHTVDRNGLWHALTPQFFPRELLHDCLTRALNEGATITDEASALEYCGFHPQLVEGRADNIKVTRPEDLALAEFYLTRTIHQENT: soluble
MGQMADRLAALVVTAFSPDGQIEGSYGAAAGANIRFNGNSYRHYTERGLGHQLSRMAVLVWIAHQRGHDATVAEVTGQPVSRRQETWDARRRRFREEQAETESEGMSTGGLVYFRNTGMRDWHIVIRDGTLSKLDEPEFVKEFLSGYAALSLDYRHKMTKLRTKHYGPDIWMKK: not soluble
MGSDKIHHHHHHMDDAMVSAVTCGAVMAFDRNIWIEKFLENSVPSFPCPHCSRGVLGFDGKSFWKEEPKHSKDAHAHDDWDPTWIEERFVMFLRCGVAKCGEVVAVSGNIEVEEVVDEDEGYDFASVLYPTSLVPAPPIIQMTDGTPDEVAGELSLAFQLFWADLGASATKIRTSVERLMDHFKVARYSRTKGKLKPIPLYNRIEAFIKANGKVVHQDHLHALRVVGNLGTHKNSLTRSDILEAFQVYEHALDELIGKKSASIAKLARKLKKK: not soluble
STLEIAGLVRKNLVQFGVGEKNGSVRWVMNALGVKDDWLLVPSHAYKFEKDYEMMEFYFNRGGTYYSISAGNVVIQSLDVGFQDVVLMKVPTIPKFRDITQHFIKKGDVPRALNRLATLVTTVNGTPMLISEGPLKMEEKATYVHKKNDGTTVDLTVDQAWRGKGEGLPGMCGGALVSSNQSIQNAILGIHVAGGNSILVAKLVTQEMFQNIDKKIESQ: soluble
MGQGANILGFGGDRSFNLAGNRAGFALGSNNGALVGGQRVGVDGGIGGGREGVEMGSQVQFGNEPNPGHPAGQFGSFMDNVKNFFSFLGRGMPMPPQQPPPSPPFSLGVTRPPTLIGTERSESENGGRHRPRPWFPEGEQIPEVTGEMRPKEGEAGISSSSSSSSETEFIGPNNGEIPRKSVEFSIDKEPREEFTEDLFTAQTSRPRELPGLIEFA: not soluble
MVFNFLIVSDEVEDFRREIAIDSEATFLDLQNAILDSVGYSHSELTSFFLCDEDWHKGQEITLMEMDTASDEDSYVMENTRLEEFIEDEHQRLVFEFDLMTERYFFIEVMDIVPGKSLSEPKLLTSEGLPPQQSSLDDLMDPTAIPTKQARGLDLEEDFFGDSEYNEDEIDREGFEGFDEITSDLSDNY: not soluble

Proceed to the following item.
Prompt line: // soluble on expression in E. coli lookup, key: MRLRHKPYAMDRINEYSHIVIGNPEERAGSWKEVFGNEQPIHIEVGTGRGRFMYDMAKANPHINYIGIEKFTSVVVDALDKLIEEELPNLKLINKDAEDLTVFFAKGEIDRVYLNFSDPWPKKRHTKRRLTYKTFLRNYEEVLVEGGEIHFKTDNQGLFEYSLMSMAEYGMLLTYLSLDLHNSDFEGNIMTEYEEKFSSKGHRIYRVEAKYRTEPMQ
Response line: not soluble
